FYI, the data here is from ChEMBL document CHEMBL2046351.

System: MDR1 (human)
test-details: Efflux ratio of permeability from basolateral to apical over apical to basolateral side of MDCK cells expressing human MDR1 at 5 uM after 2 hrs by LC/MS analysis
Format: ADME, cell-based, Canis lupus familiaris
settings: dog
Cut-off 5 on efflux ratio at 2 h, 5 µM: below means 1, at or above means 0.

As a guide, the following entries are already answered.
## Task Report whether reported efflux ratio at 2 h, 5 µM is lower than 5 (strictly) for CC(C)Oc1cc(C[C@@H]2CS(=O)(=O)C[C@H](NCc3cccc(C(C)(C)C)c3)[C@H]2O)cc(F)c1N
## Result 1

## Task Dear reviewer, please state whether CC(C)(C)c1cccc(CN[C@H]2CS(=O)(=O)C[C@@H](Cc3cc(F)c(N)c(OC4CCC4)c3)[C@@H]2O)c1 has efflux ratio at 2 h, 5 µM strictly beneath 5.
## Result 1

## Task Problem: For the molecule CCc1cc(C[C@@H]2CS(=O)(=O)C[C@H](NCc3cccc(C(C)(C)C)c3)[C@H]2O)cc(F)c1NC(C)=O , is efflux ratio at 2 h, 5 µM under 5?
## Result 0

## Task Does the reported efflux ratio at 2 h, 5 µM of CC(C)(C)c1cccc(CN[C@H]2CS(=O)(=O)C[C@@H](Cc3cc(O)c(N)c(F)c3)[C@@H]2O)c1 stay below 5?
## Result 0

Continuing:
## Task Quick check: efflux ratio at 2 h, 5 µM of CC(C)(C)c1cccc(CN[C@H]2CS(=O)(=O)C[C@@H](Cc3ccc4[nH]ncc4c3)[C@@H]2O)c1 (racemic) under 5?
## Result 0

* * *

Tested on: Brain
test-details: Drug uptake in APP51/16 transgenic mouse brain at 180 umol/kg, po measured 4 hrs post dosing by LC/MS/MS analysis
Assay type: ADME, organism-based
settings: in vivo
Entry flag: 1 if Drug uptake reaches 2 nmol/g; 0 if it does not.

## Task I'd appreciate it if you could say whether CC(C)(C)c1cccc(CN[C@H]2CS(=O)(=O)C[C@@H](Cc3cc(F)c(N)c(OC(C(F)(F)F)C(F)(F)F)c3)[C@@H]2O)c1 has Drug uptake at least equal to 2 nmol/g.
## Result 0

## Task Threshold query (Drug uptake >= 2 nmol/g) on CCOc1cc(C[C@@H]2CS(=O)(=O)C[C@H](NCc3cccc(C(C)(C)C)c3)[C@H]2O)cc(F)c1N
## Result 1

## Task Reported Drug uptake reaches at least 2 nmol/g for CC(C)(C)c1cccc(CN[C@H]2CS(=O)(=O)C[C@@H](Cc3cc(F)c(N)c(OCC(F)F)c3)[C@@H]2O)c1 ?
## Result 1

## Task Determine whether this compound has Drug uptake no lower than 2 nmol/g: COC[C@@H](Oc1cc(C[C@@H]2CS(=O)(=O)C[C@H](NCc3cccc(C(C)(C)C)c3)[C@H]2O)cc(F)c1N)C(F)(F)F
## Result 0

## Task API: above_or_equal(metric=Drug uptake, cutoff=2 nmol/g) for item CC(C)(C)c1cccc(CN[C@H]2CS(=O)(=O)C[C@@H](Cc3cc(F)c(N)c(OCC(F)(F)F)c3)[C@@H]2O)c1
## Result 0

* * *

target-under-test: Beta-secretase 1 (Homo sapiens)
Sequence (P56817 whole entry): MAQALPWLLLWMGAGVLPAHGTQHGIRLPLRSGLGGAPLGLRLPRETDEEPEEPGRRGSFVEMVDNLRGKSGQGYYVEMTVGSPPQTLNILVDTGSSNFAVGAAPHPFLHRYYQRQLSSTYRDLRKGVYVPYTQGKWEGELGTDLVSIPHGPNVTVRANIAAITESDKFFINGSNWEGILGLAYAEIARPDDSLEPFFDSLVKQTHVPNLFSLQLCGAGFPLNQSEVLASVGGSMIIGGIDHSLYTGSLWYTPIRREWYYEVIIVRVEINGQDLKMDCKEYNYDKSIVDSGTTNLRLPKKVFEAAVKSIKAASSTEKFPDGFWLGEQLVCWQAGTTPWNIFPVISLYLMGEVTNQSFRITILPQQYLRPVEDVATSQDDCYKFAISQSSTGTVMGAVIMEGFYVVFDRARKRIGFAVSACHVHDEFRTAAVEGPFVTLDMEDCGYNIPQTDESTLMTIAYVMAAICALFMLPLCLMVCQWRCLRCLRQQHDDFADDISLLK
test-details: Inhibition of human BACE-1 mediated amyloid beta 40 release in Chinese hamster CHO cells expressing human wild-type APP
property: pIC50
Answers are plain numbers, as −log10 of the molar value.

CCCN1CCC[C@@]12CCN([C@@H](C)C(=O)N[C@@H](Cc1ccccc1)[C@H](O)CNCc1cccc(C(C)C)c1)C2=O has a reported pIC50 of 8.00

* * *

test-details: Blood clearance in C57BL/6 mouse at 2 umol/kg, iv dosed in N-methyl pyrrolidone/blank plasma (10:90 v/v) by LC/MS/MS analysis
Type: ADME, organism-based
property: clearance (mL/min/kg)
Give bare numbers, in mL/min/kg.

Recorded results for 2 compounds are shown here.
Entry CC(C)(C)c1cccc(CN[C@H]2CS(=O)(=O)C[C@@H](Cc3cc(F)c(N)c(OCC(F)(F)F)c3)[C@@H]2O)c1 — recorded clearance = 111

The recorded clearance for entry CC(C)(C)c1cccc(CN[C@H]2CS(=O)(=O)C[C@@H](Cc3ccc(N)c(Br)c3)[C@@H]2O)c1 equals 8.1

Please find the next compound below.
For CC(C)(C)c1cccc(CN[C@H]2CS(=O)(=O)C[C@@H](Cc3cc(F)c(N)c(OC(C(F)(F)F)C(F)(F)F)c3)[C@@H]2O)c1 the compound record lists clearance as 82

* * *

Hi there, I'd appreciate the recorded Papp at 2 h, 5 µM for every entry that follows.
System: MDR1 (human)
test-details: Apparent permeability across MDCK cells expressing human MDR1 at 5 uM after 2 hrs by LC-MS analysis
Assay type: ADME, cell-based, Canis lupus familiaris
settings: dog
Answers are plain numbers, in ×10⁻⁶ cm/s.

Each compound below has a reported value. Please supply its Papp at 2 h, 5 µM.
1. CC(C)(C)c1cccc(CN[C@H]2CS(=O)(=O)C[C@@H](Cc3cc(F)c(N)c(Br)c3)[C@@H]2O)c1
2. CC1(C)OCc2ccc(CN[C@H]3CS(=O)(=O)C[C@@H](Cc4cc(F)c(N)c(OC(C(F)(F)F)C(F)(F)F)c4)[C@@H]3O)cc21
3. CC(C)(C)c1cccc(CN[C@H]2CS(=O)(=O)C[C@@H](Cc3cc(F)c4c(c3)C3(CCC3)CN4)[C@@H]2O)c1 (racemic)

## Result
13
21
6

* * *

Give measured concentration at 4 h for each item. Keep answers brief.
test-details: Drug uptake in APP51/16 transgenic mouse blood at 180 umol/kg, po measured 4 hrs post dosing by LC/MS/MS analysis
Format: ADME, organism-based
settings: read-out: Drug uptake
Give bare numbers, in µM.

// solved cases for concentration at 4 h follow
response.value for COC[C@@H](Oc1cc(C[C@@H]2CS(=O)(=O)C[C@H](NCc3cccc(C(C)(C)C)c3)[C@H]2O)cc(F)c1N)C(F)(F)F (field: concentration at 4 h) = 7.3

Measured concentration at 4 h, CC(C)(C)c1cccc(CN[C@H]2CS(=O)(=O)C[C@@H](Cc3cc(F)c(N)c(OCC(F)(F)F)c3)[C@@H]2O)c1 : 10.2

Noted for CC(C)(C)c1cccc(CN[C@H]2CS(=O)(=O)C[C@@H](Cc3cc(F)c(N)c(OCC(F)F)c3)[C@@H]2O)c1 : its concentration at 4 h reads 12.2

Would you mind giving concentration at 4 h for every compound in the list below?
1. CCOc1cc(C[C@@H]2CS(=O)(=O)C[C@H](NCc3cccc(C(C)(C)C)c3)[C@H]2O)cc(F)c1N
2. CC(C)(C)c1cccc(CN[C@H]2CS(=O)(=O)C[C@@H](Cc3cc(F)c(N)c(OC(C(F)(F)F)C(F)(F)F)c3)[C@@H]2O)c1

## Result
[9, 3.7]

* * *

Tested on: MDR1 (human)
test-details: Apparent permeability across MDCK cells expressing human MDR1 at 5 uM after 2 hrs by LC-MS analysis
Format: ADME, cell-based, Canis lupus familiaris
settings: dog
Simple rule here: Papp at 2 h, 5 µM less than 20 ×10⁻⁶ cm/s is True, otherwise False.

Worked cases, answers included:
## Task # strict comparison: is reported Papp at 2 h, 5 µM < 20 ×10⁻⁶ cm/s? input = COC[C@@H](Oc1cc(C[C@@H]2CS(=O)(=O)C[C@H](NCc3cccc(C(C)(C)C)c3)[C@H]2O)cc(F)c1N)C(F)(F)F
## Result True

## Task API: query returns whether the molecule falls strictly under 20 ×10⁻⁶ cm/s in Papp at 2 h, 5 µM. Query: CCCc1cc(C[C@@H]2CS(=O)(=O)C[C@H](NCc3cccc(C(C)(C)C)c3)[C@H]2O)cc(F)c1N
## Result True

## Task Hello, I'm reviewing records and need to know if Papp at 2 h, 5 µM of CCCOc1cc(C[C@@H]2CS(=O)(=O)C[C@H](NCc3cccc(C(C)(C)C)c3)[C@H]2O)ccc1N is below 20 ×10⁻⁶ cm/s. Could you check?
## Result True

## Task is_below(Papp at 2 h, 5 µM, 20 ×10⁻⁶ cm/s) for CC(C)(C)c1cccc(CN[C@H]2CS(=O)(=O)C[C@@H](Cc3cc(F)c(N)c(OC4CCC4)c3)[C@@H]2O)c1 ?
## Result True

## Task A record lists CC(C)(C)c1cccc(CN[C@H]2CS(=O)(=O)C[C@@H](Cc3ccc(N)c(OC(F)(F)F)c3)[C@@H]2O)c1 (racemic) . Is its Papp at 2 h, 5 µM below 20 ×10⁻⁶ cm/s?
## Result True

Continuing:
## Task Determine whether this molecule shows Papp at 2 h, 5 µM lower than 20 ×10⁻⁶ cm/s (ties excluded): CCc1cc(C[C@@H]2CS(=O)(=O)C[C@H](NCc3cccc(C(C)(C)C)c3)[C@H]2O)cc(F)c1N
## Result False

## Task Field: below-cutoff. Rule: recorded Papp at 2 h, 5 µM strictly less than 20 ×10⁻⁶ cm/s. Subject: CCCc1n[nH]c2ccc(C[C@@H]3CS(=O)(=O)C[C@H](NCc4cccc(C(C)(C)C)c4)[C@H]3O)cc12 (racemic)
## Result False
